System: basophil cells
Experiment: Basophil ionomycin activation: histamine release assay
Format: cell-based, human
Conditions: Basophils
// reported IC50 for each item listed
value-kind: IC50

1. Fc1cnc(Nc2ccc3c(c2)OC(F)(F)C(F)(F)O3)nc1Nc1ccc2c(c1)OC(F)(F)C(F)(F)O2
> 10 µM
2. Fc1cnc(Nc2ccc(N3CCOCC3)cc2)nc1Nc1ccc(N2CCOCC2)cc1
10 µM
3. CNC(=O)COc1cccc(Nc2ncc(F)c(Nc3cccc(O)c3)n2)c1
> 10 µM
4. CNC(=O)COc1cccc(Nc2ncc(F)c(Nc3ccc4c(c3)NCCO4)n2)c1
> 10 µM
5. CNC(=O)COc1cccc(Nc2ncc(F)c(Nc3ccc4c(c3)OCCO4)n2)c1
> 10 µM

---

Test: Sheep model of allergic asthma (Ascaris suum challenge)
Type: in vivo
Settings: aqueous suspension
value-kind: EAR (in words)

1. CNC(=O)COc1cccc(Nc2ncc(F)c(Nc3ccc4c(c3)OCCO4)n2)c1
greatly reduced
2. CNC(=O)COc1cccc(Nc2ncc(F)c(Nc3ccc4c(c3)NCCO4)n2)c1
greatly reduced
3. CNC(=O)COc1cccc(Nc2ncc(F)c(Nc3cccc(O)c3)n2)c1
greatly reduced

---

Tested on: cultured human mast cells (CHMC)
Assay: CHMC low cell density IgE activation: tryptase assay
Type: cell-based
Conditions: anti-IgE, Dihydrochloride Salt
Experimental: Pellet CHMC cells (980 rpm, 10 min) and resuspend in pre-warmed MT. Add 65 ul of cells to each 96-well plate. Depending on the degranulation activity for each particular CHMC donor, load 1000-1500 cells/well. Mix four times followed by a 1 hr incubation at 37° C. […] Stimulate cells by adding 25 ul of 6× anti-IgE solution to the appropriate plates. Add 25 ul MT to un-stimulated control wells. Mix twice following addition of the anti-IgE. Incubate at 37° C. for 30 minutes. […]
Counter-ions that a name gives are not always drawn.
value-kind: IC50

1. Oc1cccc(Nc2nc(Nc3ccc4oc(CN5CCNCC5)cc4c3)ncc2F)c1 [R926769, Dihydrochloride Salt]
1070 nM

---

System: cultured human mast cells (CHMC)
Test: CHMC high cell density IgE activation: hexos (hexosaminidase) release
Type: cell-based
Details: anti-IgE activation
value-kind: log10(IC50) (log10 of the value in nM)

1) N#CCOc1ccc(Nc2ncc(F)c(Nc3ccc(OCC#N)cc3)n2)cc1
2.55
2) O=C(c1cc2cc(Nc3ncc(F)c(Nc4cccc(O)c4)n3)ccc2o1)N1CCOCC1
2.72
3) CNC(=O)COc1cccc(Nc2ncc(F)c(Nc3cccc(O)c3)n2)c1
2.23
4) Cc1nc(COc2cccc(Nc3ncc(F)c(Nc4ccc5c(c4)OCCO5)n3)c2)no1
3.11
5) Cc1cc(Nc2nc(Nc3cccc(OCC(=O)N4CCNCC4)c3)ncc2F)cc(C)c1O
3.00
6) Fc1cnc(Nc2ccc(OCc3nnn[nH]3)cc2)nc1Nc1ccc(OCc2nnn[nH]2)cc1
3.91
7) CC(C)Oc1ccc(Nc2nc(Nc3ccc4oc(C(=O)N5CCCC5)cc4c3)ncc2F)cc1
3.18
8) CNC(=O)COc1cccc(Nc2ncc(F)c(Nc3ccc4c(c3)OCCO4)n2)c1
2.00
9) CNCCOc1cccc(Nc2ncc(F)c(Nc3ccc4c(c3)OCCO4)n2)c1
2.96

---

Property: IC50; scope: individual compounds
Test system: cultured human mast cells (CHMC)
Test: CHMC high cell density IgE activation: histamine
Format: cell-based
Conditions: anti-IgE activation
value-kind: IC50 (nM)

1) Cc1nc(COc2cccc(Nc3ncc(F)c(Nc4ccc5c(c4)OCCO5)n3)c2)no1
547
2) N#CCOc1ccc(Nc2ncc(F)c(Nc3ccc(OCC#N)cc3)n2)cc1
439
3) CNC(=O)COc1cccc(Nc2ncc(F)c(Nc3cccc(O)c3)n2)c1
105

All figures here come from patent US9499493B2.
